Biological target: T1, extracellular domain of human BCMA (human, UniProt Q02223 1-54)
T1 construct: amine-linked to Octet AR2G tips; also called hsBCMA; BCMA (human)
T1 sequence: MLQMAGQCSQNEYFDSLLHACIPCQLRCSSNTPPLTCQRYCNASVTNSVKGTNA
Assay: Octet BLI; Fab 200 nM
MEASURED_METRIC: pKd
Note: pKd values are expressed as the negative base-10 logarithm of concentration in M.

As a guide, the following entries are already answered.
AB200-(2Vk31)_R2-VH-v20 (Fab, V domains shown, also called AB200_VH2-20_VK2-31) VH: QVQLVQSGAEVKKPGSSVKVSCKASGGTFSNYWIHWVRQAPGQGLEWMGGTYRSHSDTNYNQKFKSRVTITADKSTSTAYMELSSLRSEDTAVYYCARGAIYHGYDVIENWGQGTLVTVSS VL: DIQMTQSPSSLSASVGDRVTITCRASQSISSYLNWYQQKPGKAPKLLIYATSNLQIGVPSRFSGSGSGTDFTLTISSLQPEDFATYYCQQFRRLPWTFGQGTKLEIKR: 7.41
AB200-(2Vk44)_R2-VH-v75 (Fab, V domains shown, also called AB200_VH2-75_VK2-44) VH: QVQLVQSGAEVKKPGSSVKVSCKASGGTFSNYWIHWVRQAPGQGLEWMGATYRIQSDTYYNQKYKSRVTITADKSTSTAYMELSSLRSEDTAVYYCARGAVYHGYDVIDNWGQGTLVTVSS VL: DIQMTQSPSSLSASVGDRVTITCRASQSISSYINWYQQKPGKAPKLLIYATSNLQIGVPSRFSGSGSGTDFTLTISSLQPEDFATYYCQQYRRLPWSFGQGTKLEIKR: 8.97

stdin: Quick one: pKd for AB200-(2Vk31)_R2-VH-v27 (Fab, V domains shown, also called AB200_VH2-27_VK2-31) VH: QVQLVQSGAEVKKPGSSVKVSCKASGGTFSNYWIHWVRQAPGQGLEWMGATYRSQSTTYYNQKFKSRVTITADKSTSTAYMELSSLRSEDTAVYYCARGAVYHGYDVIDNWGQGTLVTVSS VL: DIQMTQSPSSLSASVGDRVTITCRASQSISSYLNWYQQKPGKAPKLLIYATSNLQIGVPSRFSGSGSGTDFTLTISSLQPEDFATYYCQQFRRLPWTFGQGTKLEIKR ?
stdout: 8.19
